# Tested on: rodent lifetime carcinogenesis bioassay, tumor incidence TD50
# Test Details: carcinogenic potency in animals, long-term in vivo studies, CPDB compilation (AID 1745844)
# Measurement Conditions: rat; strain Sprague-Dawley albino; females; in feed; site: any site (literature study); lesion: malignant tumor; dosed 52 weeks; study length 52 weeks
Parameter: TD50

Noted for CCN(Cc1cccc(S(=O)(=O)[O-])c1)c1ccc(C(=C2C=CC(=[N+](C)C)C=C2)c2ccc(N(CC)Cc3cccc(S(=O)(=O)O)c3)cc2)cc1 : its TD50 reads 568 mg/kg/day

* * *

# System: rodent lifetime carcinogenesis bioassay, tumor incidence TD50
# Test Details: carcinogenic potency in animals, long-term in vivo studies, CPDB compilation (AID 1745844)
# Measurement Conditions: mouse; strain B6C3F1; females; inhaled; site: forestomach; lesion: squamous-cell papilloma; dosed 61 weeks; study length 61 weeks
Parameter: TD50

The compound C=CC=C on rodent lifetime carcinogenesis bioassay, tumor incidence TD50: TD50 was 461 mg/kg/day

* * *

# System: rodent lifetime carcinogenesis bioassay, tumor incidence TD50
# Test Details: carcinogenic potency in animals, long-term in vivo studies, CPDB compilation (AID 1745844)
# Measurement Conditions: mouse; strain B6AKF1; females; oral dosing; site: lung; lesion: adenoma; dosed 79 weeks; study length 79 weeks
Parameter: TD50 (mg/kg/day)
Entry rule: numbers only, all in mg/kg/day.

So, OCCN(CCO)C(=S)S ? Its TD50 was 850

* * *

Form field: TD50 (one value per entry).
# System: rodent lifetime carcinogenesis bioassay, tumor incidence TD50
# Test Details: carcinogenic potency in animals, long-term in vivo studies, CPDB compilation (AID 1745844)
# Measurement Conditions: mouse; strain Swiss; males; i.p.; site: all sites; lesion: lymphatic leukemia; dosed 26 weeks; study length 78 weeks

Reported TD50 of CN(C)N=Nc1nc[nH]c1C(N)=O : 13 mg/kg/day

The compound identified as O[C@H]([C@H](O)[C@@H](O)CBr)[C@H](O)CBr registered its TD50 at 32.4 mg/kg/day

* * *

# Test system: rodent lifetime carcinogenesis bioassay, tumor incidence TD50
# Test Details: carcinogenic potency in animals, long-term in vivo studies, CPDB compilation (AID 1745844)
# Measurement Conditions: mouse; strain B6C3F1; males; in feed; site: any site (literature study); lesion: several types; types named in the paper; dosed 104 weeks; study length 105 weeks
The source made the active and inactive calls. The rule behind the calls is not given here.
Measured TD50, listed per entry for reference.

Known results for compounds:
# Structure Notation, TD50
data = [
    ("OCC(CO)(CBr)CBr", "126 mg/kg/day"),
    ("O=[N+]([O-])c1cc(N(CCO)CCO)ccc1NCCO", "5020 mg/kg/day"),
    ("Cc1ccc(OP(=O)(Oc2ccc(C)cc2)Oc2ccc(C)cc2)cc1", "159 mg/kg/day"),
    ("Nc1ccc(N)c2c1C(=O)c1c(N)ccc(N)c1C2=O", "1290 mg/kg/day"),
    ("O=Nc1ccc(NO)cc1", "936 mg/kg/day (inactive)"),
]

Could you now consider this next compound?
The reported TD50 of the compound CN(C)NC(=O)CCC(=O)O was 1500 mg/kg/day

* * *

# Tested on: rodent lifetime carcinogenesis bioassay, tumor incidence TD50
# Test Details: carcinogenic potency in animals, long-term in vivo studies, CPDB compilation (AID 1745844)
# Measurement Conditions: mouse; strain B6C3F1; females; by gavage; site: liver; lesion: hepatocellular adenoma + hepatocellular carcinoma + neoplastic nodule; dosed 103 weeks; study length 105 weeks
Known TD50 of a selection of compounds
Give the number; mg/kg/day is assumed, so skip it.

Previously resolved entries follow.
# Compound, TD50 (mg/kg/day)
rows = [
    ("C[C@H](CCC(=O)O)[C@H]1CC[C@H]2[C@@H]3CC[C@@H]4C[C@H](O)CC[C@]4(C)[C@H]3CC[C@]12C", 1140),
    ("ClC=C(Cl)Cl", 411),
    ("C=CC(=O)NCO", 74.8),
]

Query compound follows.
// field: TD50; key: Nc1cc([N+](=O)[O-])ccc1O ; value = 2160
